molecular target: EI^Ntr (Enzyme I^Ntr) (Escherichia coli, UniProt P37177, H356A); assay: intrinsic Trp fluorescence titration
Sequence (P37177 170-748 H356A limits assumed): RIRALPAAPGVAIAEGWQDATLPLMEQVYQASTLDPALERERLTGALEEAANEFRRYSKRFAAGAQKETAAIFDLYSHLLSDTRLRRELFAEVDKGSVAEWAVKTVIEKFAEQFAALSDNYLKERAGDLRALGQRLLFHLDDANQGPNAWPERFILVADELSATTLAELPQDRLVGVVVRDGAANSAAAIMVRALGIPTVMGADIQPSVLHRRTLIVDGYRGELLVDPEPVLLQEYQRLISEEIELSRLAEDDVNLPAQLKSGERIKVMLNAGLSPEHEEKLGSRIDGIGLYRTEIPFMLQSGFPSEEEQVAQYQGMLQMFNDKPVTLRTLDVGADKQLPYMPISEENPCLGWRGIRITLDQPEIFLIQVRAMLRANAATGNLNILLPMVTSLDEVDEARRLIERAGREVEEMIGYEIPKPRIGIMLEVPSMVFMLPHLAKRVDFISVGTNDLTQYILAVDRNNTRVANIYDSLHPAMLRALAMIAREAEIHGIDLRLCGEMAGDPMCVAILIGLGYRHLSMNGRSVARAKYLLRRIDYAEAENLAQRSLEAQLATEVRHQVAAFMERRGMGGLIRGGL
reportedMetric: Kd (µM)
Report only the number, with the unit µM understood.

Lookup: Kd / EI^Ntr (Enzyme I^Ntr) (Escherichia coli, UniProt P37177, H356A) / C=C(OP(=O)(O)O)C(=O)O
21
